- assayed system: CDK-2 enzyme, complexed with cyclin A (Homo sapiens, UniProt P24941)
- measurement protocol: CDK2 enzyme inhibition assay (33P phosphorylation of peptide […], filter plate)
- assay conditions: CDK-2/cyclin A, 0.1 mM ATP, 40 min at 30° C.
- Method: The assay mixture containing the inhibitor and CDK-2 enzyme, complexed with cyclin A (0.4 U/ml) was mixed together in a microtiter plate in a final volume of 50 μl and incubated for 40 min at 30° C. […] The filtration plate was dried for 10 min at 65° C., scintillant added and phosphorylated peptide quantified in a scintillation counter (Trilux, PerkinElmer) […]
For each of the molecules below, state its log10(IC50).
A difference of one corresponds to tenfold IC50; all values are log10 with IC50 in nM.

Can you share its log10(IC50)? I mean this molecule: CC(C)c1cnn2c(Nc3ccc(S(C)(=O)=O)cc3)cc(OCCN(C)C)nc12
3.92

Can you share its log10(IC50)? I mean this molecule: CC(C)c1cnn2c(Nc3ccc(S(=O)(=O)NCCN(C)C)cc3)cc(Cl)nc12
1.59

Can you share its log10(IC50)? I mean this molecule: CC(C)c1cnn2c(Nc3ccc(S(=O)(=O)NCCO)cc3)cc(Cl)nc12
3.18

Can you share its log10(IC50)? I mean this molecule: CC(C)c1cnn2c(Nc3ccc(S(=O)(=O)N(C)C)cc3)cc(NCCCN3CCN(C)CC3)nc12
4.34

Can you share its log10(IC50)? I mean this molecule: CC(C)c1cnn2c(Nc3ccc(S(=O)(=O)N(C)C)cc3)cc(C(=O)NCCN)nc12
3.83

Can you share its log10(IC50)? I mean this molecule: COCCNS(=O)(=O)c1ccc(Nc2cc(Cl)nc3c(C(C)C)cnn23)cc1
2.85

Can you share its log10(IC50)? I mean this molecule: N[C@H]1CC[C@H](Nc2cc(Nc3ccc(Oc4cccnc4)cc3)n3ncc(Cl)c3n2)CC1
1.45

Can you share its log10(IC50)? I mean this molecule: CCOC(=O)c1cc(Nc2ccc(S(=O)(=O)N(C)C)cc2)n2ncc(C(C)C)c2n1
2.44

Can you share its log10(IC50)? I mean this molecule: CC(C)c1cnn2c(Nc3ccc(S(=O)(=O)N(C)CCO)cc3)cc(OCCN(C)C)nc12
2.61

Can you share its log10(IC50)? I mean this molecule: CC(C)c1cnn2c(Nc3ccc(S(=O)(=O)N(C)C)cc3)cc(CN3CCC(O)CC3)nc12
3.26

Can you share its log10(IC50)? I mean this molecule: CCc1cnn2c(Nc3ccc(S(=O)(=O)N4CCCC4)cc3)cc(Cl)nc12
1.82

Can you share its log10(IC50)? I mean this molecule: CC(C)c1cnn2c(Nc3ccc(S(=O)(=O)N(C)C)cc3)cc(N3CCCC(CN(C)C)C3)nc12 (stereo not drawn)
3.92

Can you share its log10(IC50)? I mean this molecule: CCc1cnn2c(Nc3ccc(C(N)=O)cc3)cc(Cl)nc12
2.15

Can you share its log10(IC50)? I mean this molecule: CC(C)c1cnn2c(NC3CCN(S(=O)(=O)C(C)C)CC3)cc(Cl)nc12
3.07

Can you share its log10(IC50)? I mean this molecule: CNCCNC(=O)c1cc(Nc2ccc(S(=O)(=O)N(C)C)cc2)n2ncc(C(C)C)c2n1
2.15

Can you share its log10(IC50)? I mean this molecule: CC(C)c1cnn2c(Nc3ccc(S(=O)(=O)N(C)C)cc3)cc(OCC3CCCN3C)nc12 (stereo not drawn)
3.04

Can you share its log10(IC50)? I mean this molecule: CC(C)c1cnn2c(Nc3ccc(S(=O)(=O)N4CCCC4)cc3)cc(N[C@H]3CC[C@H](N)CC3)nc12
1.38

Can you share its log10(IC50)? I mean this molecule: CN(C)S(=O)(=O)c1ccc(Nc2cc(N[C@H]3CC[C@@H](N)CC3)nc3c(Br)cnn23)cc1
3.56

Can you share its log10(IC50)? I mean this molecule: NC(=O)c1ccc(Nc2cc(Cl)nc3c(Br)cnn23)cc1
1.90

Can you share its log10(IC50)? I mean this molecule: CC1(C)CC(Nc2cc(Nc3ccc(S(=O)(=O)N4CCCC4)cc3)n3ncc(Br)c3n2)CC(C)(C)N1
4.38

Can you share its log10(IC50)? I mean this molecule: COc1cc(Nc2ccc(S(=O)(=O)N(C)C)cc2)n2ncc(C(C)C)c2n1
2.94

Can you share its log10(IC50)? I mean this molecule: CC(C)c1cnn2c(Nc3ccc(S(C)(=O)=O)cc3)cc(N(C)CCN(C)C)nc12
3.29

Can you share its log10(IC50)? I mean this molecule: CC(C)c1cnn2c(Nc3ccc(S(=O)(=O)N(C)C)cc3)cc(N3CCCC(C(=O)O)C3)nc12 (stereo not drawn)
3.63

Can you share its log10(IC50)? I mean this molecule: CC(C)c1cnn2c(Nc3ccc(S(N)(=O)=O)cc3)cc(Cl)nc12
1.79

Can you share its log10(IC50)? I mean this molecule: CCc1cnn2c(Nc3ccc(C(=O)NCCN(CC)CC)cc3)cc(Cl)nc12
2.90

Can you share its log10(IC50)? I mean this molecule: CC(C)c1cnn2c(Nc3ccc(S(=O)(=O)N(C)CCN(C)C)cc3)cc(Cl)nc12 [Example 60]
1.60

Can you share its log10(IC50)? I mean this molecule: CC(C)c1cnn2c(Nc3ccc(S(=O)(=O)N(C)C)cc3)cc(C(=O)N3CCC(N4CCCC4)CC3)nc12
4.09
